Test system: A549
Protocol Summary: Cytotoxicity against human A549 cells after 5 days by MTT assay
Assay type: functional, cell-based
Run Parameters: A549, 120 h

>  <Smiles Data>
O=C(CCN1CCCC1)Nc1cc2c3c(cc(NC(=O)CCN4CCCC4)cc3c1)C(=O)N(CCCN1CCOCC1)C2=O

>  <IC50 / µM>
40.3

$$$$
>  <Smiles Data>
O=C(CCN1CCCC1)Nc1cc2c3c(cc(NC(=O)CCN4CCCC4)cc3c1)C(=O)N(CCCN1CCCCC1)C2=O

>  <IC50 / µM>
9.9

$$$$
>  <Smiles Data>
O=C(CCN1CCCC1)Nc1cc2c3c(cc(NC(=O)CCN4CCCC4)cc3c1)C(=O)N(CCCN1CCCC1)C2=O

>  <IC50 / µM>
5.2

$$$$
